test system: FAD-linked sulfhydryl oxidase ALR (Homo sapiens)
Sequence (P55789 whole entry): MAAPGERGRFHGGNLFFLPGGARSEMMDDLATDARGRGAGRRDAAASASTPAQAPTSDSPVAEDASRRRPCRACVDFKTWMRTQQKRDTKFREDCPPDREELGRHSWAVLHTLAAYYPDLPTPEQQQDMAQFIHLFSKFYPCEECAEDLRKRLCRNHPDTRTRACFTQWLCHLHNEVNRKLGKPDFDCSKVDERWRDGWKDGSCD
method description: inhibitors of human ALR sulfhydryl oxidase, dose response, biochemical, H2O2 detection, luminescence, cherry-pick (AID 493248)
Activity calls are given as the source filed them. Rule as the data show it: actives have a measured AC50 and inactives only a lower limit.
readout name: AC50

> print(dat)
                                    compound  readout.name          obs.value
 1  COc1ccc(CSc2[nH]c(C)nc2[N+](=O)[O-])cc1[N+](=O)[O-]          AC50   0.02 µM (active)
 2  CC(C)c1ccc(NC2CCCN(C(=O)c3cnsn3)C2)cc1 (stereo not given)          AC50    4.8 µM (active)
 3  O=C(NCc1ccco1)c1ccc2c(c1)N(Cc1ccccc1)CCS2          AC50   81.2 µM (active)
 4  Cc1cccc(N2CCN(C(=O)C3CCN(S(=O)(=O)c4c(C)noc4C)CC3)CC2C)c1 (stereo not given)          AC50   10.6 µM (active)
 5     O=C(Nc1ccc2snnc2c1)N1CCN(c2ccccc2)CC1          AC50  0.913 µM (active)
 6  O=C(O)CN1C(=O)/C(=C\c2cc(Br)ccc2OCc2ccc(Cl)cc2)SC1=S          AC50   1.58 µM (active)
 7  O=C(N/N=C/c1ccncc1)c1cccc(N/N=C/c2ccncc2)c1          AC50   6.02 µM (active)
 8  Cc1cccc(N2CCN(C(=O)C3CCCN(S(=O)(=O)c4c[nH]cn4)C3)CC2C)c1 (stereo not given)          AC50   3.55 µM (active)
 9  CN1C(=O)/C(=C/c2cccc([N+](=O)[O-])c2)C(=O)N1c1ccccc1          AC50  0.533 µM (active)
10  CCn1c(=O)c(=O)[nH]c2cc(C(=O)NC(C)c3ccc(S(N)(=O)=O)cc3)ccc21 (stereo not given)          AC50  0.407 µM (active)
